- System: Human immunodeficiency virus 1
- EXPERIMENTAL DETAILS: Antiviral activity against NNRTI-resistant HIV1 with reverse transcriptase K103N/V108I mutant in HeLa cells by MAGI assay
- Type: functional, organism-based
- PROTOCOL CONDITIONS: Human immunodeficiency virus 1, HeLa
I'd be grateful if you could share measured pIC50 for these entries.
Units for pIC50: none; it is -log10 of a concentration expressed in mol/L.

Enquiry: Look at this molecule and give its reported pIC50. "Cc1cc(S(N)(=O)=O)ccc1NC(=O)COc1ccc(Cl)cc1C(=O)c1cc(F)cc(C(F)(F)F)c1"
Return: 8.59

Enquiry: Which measured pIC50 value corresponds to O=C1Nc2ccc(Cl)cc2C(C#CC2CC2)(C(F)(F)F)O1 (single isomer, unassigned) [EFAVIRENZ] ?
Return: 7.03

Enquiry: Which pIC50 is listed for "Cc1cc(S(N)(=O)=O)ccc1NC(=O)COc1ccc(Cl)cc1C(=O)c1cc(Cl)cc(C#N)c1" ?
Return: 9.05

Enquiry: May I ask what pIC50 has been recorded for "O=C(COc1ccc(Cl)cc1C(=O)c1ccccc1)Nc1ccccc1" ?
Return: 6.46
